Test system: MDA-MB-468 breast
Test: NCI-60 one-dose screen, 48 h
Conditions: 10 µM unless noted
About 83,000 compounds went through this panel and 20% of them were active in at least one assay; those are over-represented in the sample as a whole. Calls of active or inactive are those of the source. Rule for the calls: active = growth percent below 10; inactive = the rest.
Field 'call' accepts active, inactive

Use the examples below as a reference point.
O=C(O)C1(Cc2cccc(Nc3nccs3)n2)CCC(Oc2cccc(Cl)c2F)CC1 (stereo unspecified)
inactive
Cn1cc(-c2nnc(-c3cn(C)c4ncc(Br)cc34)s2)c2cc(Br)ccc21
inactive

Tell me the assay call for CC(CSc1n[nH]c(=S)s1)c1ccccc1 (stereo unspecified) please.
inactive

Tell me the assay call for NN=C(c1ccc(Cl)cc1)c1ccc(Cl)cc1 please.
inactive

----------
Test system: SK-MEL-5 melanoma
Test: NCI-60 one-dose screen, 48 h
Details: 10 µM
Procedure: Growth inhibition of the SK-MEL-5 human tumor cell line is measured as a screen for anti-cancer activity. Cells are grown in 96 well plates and exposed to the test compound for 48 hours. Compounds are tested at a single concentration, which is 10^-5 M for most compounds. The reported endpoint is percent growth (GI% or GIPRCNT), where numbers from 0 - 100% represent growth inhibition, and numbers from -100% - 0 represent cell death. For example, a value of 40 represents 60% growth inhibition. […]
About 83,000 compounds went through this panel and 20% of them were active in at least one assay; those are over-represented in the sample as a whole. Calls of active or inactive are those of the source. How the source made its calls: active means growth percent below 10; inactive means the rest.
Field 'call' accepts active, inactive

Use the examples below as a reference point.
COc1ccc(C(=O)COc2ccc(NC(=O)Nc3ccc(Cl)c(C(F)(F)F)c3)cc2)cc1
active
O=C(Nc1ccc(OCC(=O)c2ccc(Cl)cc2)cc1)Nc1ccc(Cl)c(C(F)(F)F)c1
inactive
O=C(CSc1nc2ccccc2c(=O)n1-c1ccc(Cl)cc1)Nc1ccc(-c2nc3ccccc3[nH]2)cc1
inactive

Next, consider the following molecule.
Tell me the assay call for CC1[C@H]2[C@H](C[C@H]3[C@@H]4CC=C5c6sc(Nc7cccc(Cl)n7)nc6CC[C@]5(C)[C@H]4CC[C@@]32C)O[C@]12CC[C@@H](C)CO2 (some centres undefined) please.
inactive

----------
System: MDA-MB-468 breast
Assay: NCI-60 one-dose screen, 48 h (100 = growth as untreated, 0 = no growth, -100 = all killed)
Conditions: 10 µM unless noted
Compounds without any hit were thinned out: in the full panel of roughly 83,000, 20% have a hit. The source made the active and inactive calls. The calls were made as follows: active = growth percent below 10; inactive = the rest.
recorded-endpoint: growth

O=C1Nc2ccc(Br)cc2/C1=N/c1n[nH]c(=S)s1
103% (inactive)
COc1ccc(Cn2cc3c(c2-c2ccccc2)CCc2cnoc2-3)cc1
55.2% (inactive)
COc1ccc(Nc2ncc(Br)c(NCCCNC(=O)c3cccs3)n2)cc1
51.1% (inactive)
Cc1ccc(C)c2c(C)c(C(=O)Nc3cccc(-n4cccn4)c3)oc12
27.8% [50 µM] (inactive)
COc1ccc(C2OCC(C)(C)CO2)cc1OC
92.4% (inactive)

Here is the next item to consider.
The molecule O=c1[nH][nH]c(=O)c2cc([N+](=O)[O-])ccc12 showed growth equal to 109% (inactive)

----------
Test system: MDA-MB-468 breast
Test: NCI-60 one-dose screen, 48 h
Conditions: 10 µM unless noted
Experimental: Growth inhibition of the MDA-MB-468 human Breast tumor cell line is measured as a screen for anti-cancer activity. Cells are grown in 96 well plates and exposed to the test compound for 48 hours. Compounds are tested at a single concentration, which is 10^-5 M for most compounds. The reported endpoint is percent growth (GI% or GIPRCNT), where numbers from 0 - 100% represent growth inhibition, and numbers from -100% - 0 represent cell death. […]
The panel holds about 83,000 compounds, 20% with a hit somewhere; the sample as a whole holds those more often. Activity calls are given as the source filed them. The calls were made as follows: active = growth percent below 10; inactive = the rest.
Field 'call' accepts active, inactive

Use the examples below as a reference point.
Cc1ccc(F)c(NC(=O)Nc2ccc(-c3cccc4[nH]nc(N)c34)cc2)c1
inactive
COc1cc(CN2CCO[C@H](COc3cccc(F)c3)C2)ccc1Cl
inactive
Cc1ccc(Nc2cc(N)nc(N)n2)cc1Cl
inactive

Tell me the assay call for COc1cccc(OC)c1OC(=O)c1ccccc1 please.
inactive

Tell me the assay call for COC(=O)[C@H]1Cc2c([nH]c3ccccc23)[C@H](c2ccc3c(c2)OCO3)N1 please.
inactive

Tell me the assay call for O=C(CCl)Nc1ccc(NC(=O)c2cc(Cl)ccc2O)c(Cl)c1 please.
inactive

Tell me the assay call for CCC(=O)Oc1cc(/C=C/C(=O)O[C@H]2C[C@H]3CN4CCc5c([nH]c6cc(OC)ccc56)[C@@H]4C[C@@H]3[C@@H](C(=O)OC)[C@@H]2OC)ccc1OC please.
inactive

Tell me the assay call for Cc1ccc(NC(=O)Cc2ccc(/C=C/C(=O)c3ncc[nH]3)cc2)cc1 please.
active

Tell me the assay call for O=C(/C=C/c1cccc([N+](=O)[O-])c1)c1ccc(Nc2nc(N3CCCCC3)nc(N3CCCCC3)n2)cc1 please.
inactive
